These data points were gathered from the DeepSol protein solubility set.

assay: soluble on expression in E. coli; label from the status in PepcDB or PDB records

{"seq": "MSANQEEDKKPGDGGAHINLKVKGQDGNEVFFRIKRSTQLKKLMNAYCDRQSVDMNSIAFLFDGRRLRAEQTPDELDMEDGDEIDAMLHQTGGSGGGATA", "soluble on expression in E. coli": "soluble"}
{"seq": "MDRKTRLSEPPTLALRLKPYKTAIQQLRSVIRALKENTTVTFLPTPSLILQTVRSHCVSKITFNSSCLYITDKSFQPKTINNSTPLLGNFMYLTSSKDLTKFYVQDISDLSAKISMCAPDFNMEFSSACVHGQDIVRESENSAVHVDLDFGVVADLLKWIGPHTRVKRNVKKAPCPTGTVQILVHAGPPAIKFILTNGSELEFTSNNRVSFHGVKNMRINVQLKNFYQTLLNCAVTKLPCTLRIVTEHDTLLYVASRNGLFAVENFLTEEPFQRGDPFDKNYVGNSGKSR", "soluble on expression in E. coli": "soluble"}
{"seq": "MSLATSYVGTVAGEKITTKEFKYFLGYVKIQMENDAQLQDQASKEAFWDSKIEGVDAKELAKQKALDSCKEFKIQLLKARERGLFLNDKDMQEIENSITTLLNQMAQFDQAAKNTGVEVMSAEEMLKDTYGVTIQEYKEILKDLRLVLKLVEDEQKNITITEEELRNRYNENKDVFDKITVRHIIFYTINPKTDVSLSEDAKKKAYENAKKALERANKGEDMEALALELSEDSGVEGNKGILEINSLKVNEPKLSNLVKWAYEHKVGDTDIVETGYGYHVVKIEKRTEYKDVVQNVKNVILSERYNQILGQWKQEPQYDLKKNEFALKRIKEGHHHHHH", "soluble on expression in E. coli": "soluble"}

* * *

experiment: soluble on expression in E. coli; label from the status in PepcDB or PDB records
readout.name: soluble on expression in E. coli

{"seq": "VRPAIKVGLSTASVYPLRAEAAFEYADRLGYDGVELMVWGESVSQDIDAVRKLSRRYRVPVLSVHAPCLLISQRVWGANPILKLDRSVRAAEQLGAQTVVVHPPFRWQRRYAEGFSDQVAALEAASTVMVAVENMFPFRADRFFGAGQSRERMRKRGGGPGPAISAFAPSYDPLDGNHAHYTLDLSHTATAGTDSLDMARRMGPGLVHLHLCDGSGLPADEHLVPGRGTQPTAEVCQMLAGSGFVGHVVLEVSTSSARSANERESMLAESLQFARTHLLR", "reported": "not soluble"}
{"seq": "GPGSMWAQQLSLQKQTTKISPADKDAQALITANVFIEGNRMRVLKSMEQYQAVADSAYWNYGYMGGSMVTTMAICLSLSGRLPLLQRYASWISLAGGYFGGKAALGIHNARNLSHVVNTIDSAIVETRKMDEQYNFKIPDYAREVEALQRRKFELLPTSAEAIEARKNDLNNMPLDEKVDALVEAYEKRRQAVGKE", "reported": "not soluble"}

* * *

assay: soluble on expression in E. coli; label from the status in PepcDB or PDB records
readout.name: soluble on expression in E. coli

{"seq": "MNGEEIIRFERVTKEYDGTVVLDDVSFAMERGKFYTLLGPSGCGKTTILRLIAGFIEPTEGTIYFHGKPIQNVPPNKRQVNTVFQDYALFPHLDVFENVAFGLRVKKMKEADIRQKVSEALRFVNLEGYERRRIQEMSGGQRQRVAIARAIVNEPEVLLLDEPLSALDLKLRTEMQYELRELQRRLGITFIFVTHDQEEALAMSDYIFVLNKGKIQQFGTPKDIYDEPINRFVADFIGESNILSGRMIDDFLVEFAGKQFACVDRGFAPNEPVDVVIRPEDLELAAPEDGQIVIRVDSLLFRGVHYEICGYDENGNEWLVHSTKKAEVGETVGLRFEPEAIHVMRVEREDEGA", "reported": "soluble"}
{"seq": "MTKALFFDIDGTLVSFETHRIPSSTIEALEAAHAKGLKIFIATGRPKAIINNLSELQDRNLIDGYITMNGAYCFVGEEVIYKSAIPQEEVKAMAAFCEKKGVPCIFVEEHNISVCQPNEMVKKIFYDFLHVNVIPTVSFEEASNKEVIQMTPFITEEEEKEVLPSIPTCEIGRWYPAFADVTAKGDTKQKGIDEIIRHFGIKLEETMSFGDGGNDISMLRHAAIGVAMGQAKEDVKAAADYVTAPIDEDGISKAMKHFGII", "reported": "soluble"}
